# test_target: bovine pancreatic ribonuclease A (RNase) (Bos taurus)
# Construct: mature RNase A; recombinant from pET22b(+) NdeI/HindIII in E. coli BL21 (wild type also from bovine pancreas, Sigma type II); no tag mentioned
# assay_notes: intrinsic (tyrosine) fluorescence quenching titration, nonlinear regression
# cond: read-out: Wild-type
experimental_readout: pKd
Numbers only, as −log10 of the molar value.

See these solved cases before continuing.
> print(dat)
                                   compound  experimental.readout  recorded.number
1  Cc1ncc(COP(=O)(O)O)c(CN[C@@H](C)C(=O)O)c1O [PPL-L-alanine]                   pKd             4.64
2        Cc1ncc(COP(=O)(O)O)c(C=O)c1O [PLP]                   pKd             3.92
3  Cc1ncc(COP(=O)(O)O)c(CN[C@H](C)C(=O)O)c1O [PPL-D-alanine]                   pKd             4.35

Now examine the next entry.
Summary for this compound, Cc1ncc(COP(=O)(O)O)c(CN)c1O [PMP] : pKd is 3.97

====

# test_target: bovine pancreatic ribonuclease A (RNase) (Bos taurus, UniProt P61823, K67R)
# Construct: gene RNASE1; mature RNase A; recombinant from pET22b(+) NdeI/HindIII in E. coli BL21 (wild type also from bovine pancreas, Sigma type II); no tag mentioned
# Sequence (P61823 27-150 K67R): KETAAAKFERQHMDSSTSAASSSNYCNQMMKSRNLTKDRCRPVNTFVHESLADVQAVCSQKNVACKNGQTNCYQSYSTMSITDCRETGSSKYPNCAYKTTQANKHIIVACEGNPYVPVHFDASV
# assay_notes: intrinsic (tyrosine) fluorescence quenching titration, nonlinear regression
# Assay type: binding
# cond: read-out: Wild-type
experimental_readout: pKd
One number for each entry, as −log10 of the molar value.

Summary for this molecule, Cc1ncc(COP(=O)(O)O)c(CN[C@@H](C)C(=O)O)c1O [PPL-L-alanine] : pKd is 4.64

====

Record form. Attribute: pKd. Fill in for each entry.
# test_target: bovine pancreatic ribonuclease A (RNase) (Bos taurus, UniProt P61823, K67R)
# Construct: gene RNASE1; mature RNase A; recombinant from pET22b(+) NdeI/HindIII in E. coli BL21 (wild type also from bovine pancreas, Sigma type II); no tag mentioned
# assay_notes: intrinsic (tyrosine) fluorescence quenching titration, nonlinear regression
# Type: binding
# cond: read-out: K41R
Numbers only, as −log10 of the molar value.

I have 3 compounds here; please give me pKd for each one.
1. Cc1ncc(COP(=O)(O)O)c(CN)c1O [PMP]
2. Cc1ncc(COP(=O)(O)O)c(C=O)c1O [PLP]
3. Cc1ncc(COP(=O)(O)O)c(CN[C@H](C)C(=O)O)c1O [PPL-D-alanine]

(A)
3.97
3.85
4.40

Data origin: paper PMC2443152
